# SYSTEM: human ANO6 (variant 5) (Homo sapiens, UniProt Q4KMQ2)
# Construct: expressed in transfected cells; host or cells: Fischer rat thyroid (FRT) cells
# Sequence (Q4KMQ2 1-931 isoform Q4KMQ2-2): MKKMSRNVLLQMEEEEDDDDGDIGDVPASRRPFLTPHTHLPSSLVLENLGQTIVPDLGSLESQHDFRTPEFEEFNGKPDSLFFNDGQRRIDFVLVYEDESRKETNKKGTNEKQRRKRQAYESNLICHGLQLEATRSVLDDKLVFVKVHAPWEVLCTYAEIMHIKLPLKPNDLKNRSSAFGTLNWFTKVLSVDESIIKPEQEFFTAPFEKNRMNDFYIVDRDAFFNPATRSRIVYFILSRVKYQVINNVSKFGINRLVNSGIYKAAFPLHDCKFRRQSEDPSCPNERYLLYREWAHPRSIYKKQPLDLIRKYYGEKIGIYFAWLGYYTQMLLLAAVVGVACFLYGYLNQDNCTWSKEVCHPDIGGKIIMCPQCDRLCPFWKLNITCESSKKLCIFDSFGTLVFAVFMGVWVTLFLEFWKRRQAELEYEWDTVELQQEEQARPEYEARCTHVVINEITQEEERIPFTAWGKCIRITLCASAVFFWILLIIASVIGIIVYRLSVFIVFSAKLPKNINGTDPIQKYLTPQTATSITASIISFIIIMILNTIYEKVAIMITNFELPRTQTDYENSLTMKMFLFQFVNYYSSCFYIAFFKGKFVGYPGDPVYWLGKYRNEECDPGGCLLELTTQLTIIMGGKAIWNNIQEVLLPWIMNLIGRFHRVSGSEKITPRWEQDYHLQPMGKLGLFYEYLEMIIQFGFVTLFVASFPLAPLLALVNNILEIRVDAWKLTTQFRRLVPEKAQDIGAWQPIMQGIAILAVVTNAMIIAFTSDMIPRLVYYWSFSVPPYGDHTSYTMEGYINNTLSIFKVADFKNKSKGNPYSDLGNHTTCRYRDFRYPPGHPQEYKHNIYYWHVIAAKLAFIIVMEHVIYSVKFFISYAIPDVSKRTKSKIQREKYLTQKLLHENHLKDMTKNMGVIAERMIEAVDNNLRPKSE
# PROTOCOL DESCRIPTION: Lact C2 assay (measuring phosphatidylserine externalization scramblase function)
# Assay type: cell-based
# MEASUREMENT SETUP: FRT, compound 50 nM; FRT cells expressing human ANO6 (variant 5); ionomycin 10 µM; Lact-C2-GFP fluorescence; average of three tests; read-out: % Inhibition 50 nM
PROPERTY LABEL: inhibition at 0.05 µM

> print(dat)
                                   compound  meas.value
1  Brc1ccc2nc(-c3cccc(Nc4ccc(-c5cccnn5)cc4)c3)[nH]c2c1 [Example 308]       > 60%
2  Fc1ccc(-c2ccc(Nc3cccc(-c4nc5ccc(C(F)(F)F)cc5[nH]4)c3)cc2)nn1 [Example 264]       > 60%
3  Fc1cc2nc(-c3cccc(Nc4ncc(-c5cccnn5)cn4)c3)[nH]c2cc1F [Example 99]   30 to 60%
4  FC(F)(F)Oc1ccc2nc(-c3cccc(Nc4ccc(-c5cccnn5)cc4)c3)[nH]c2c1 [Example 230]       > 60%
5  FC(F)(F)c1ccc2nc(-c3cccc(Nc4ncc(-c5ccccn5)cn4)c3)[nH]c2c1 [Example 83]       > 60%
6  Fc1ccc2nc(-c3cccc(Nc4ccc(-c5ccccn5)cn4)c3)[nH]c2c1 [Example 58]       > 60%
7  Cc1cscc1-c1cnc(Nc2cccc(-c3nc4ccccc4[nH]3)c2)nc1 [Example 43]       > 60%
8  FC(F)Oc1ccc2nc(-c3cccc(Nc4cnc(-c5ccccn5)cn4)c3)[nH]c2c1 [Example 300]   30 to 60%
